Biological target: F protein of human metapneumovirus strain JPS02-76 (type B1), on infectious virus (human metapneumovirus, strain JPS02-76 …, UniProt Q6WB98 19-539)
Assay: cell-based or functional assay
I'd be grateful if you could share measured IC90, cell-to-cell spread inhibitory activity (LLC-MK2 cells stably expressing TMPRSS2) for these entries.
Could you write the number and then its unit?

Ask: Provide only the value of recorded IC90, cell-to-cell spread inhibitory activity (LLC-MK2 cells stably expressing TMPRSS2) for EV046113 (antibody, human IgG1, kappa, V domains shown) VH: QVQLVESGGGLVRPGGSLRLSCAASGFTFSDYFMTWIRQAPGKGLEWVSYINSIGSVIFYADSVEGRFTVSRDNTMKSLFLQMNSLTAEDTAVYYCARSCRISYGASGGFSCGMDVWGQGTPVTVSS VL: DIQMTQSPSSLSASVGDRVTITCQASQSIRENINWYQQKTGKAPKLLIYDASILETGVPSRFSGSGSGTHFTFTISSLQPEDMATYYCQQYHHLITFGQGTRLDIKR
Result: 0.707 µg/mL

Ask: Note down IC90, cell-to-cell spread inhibitory activity (LLC-MK2 cells stably expressing TMPRSS2) recorded for EV046130 (antibody, human IgG1, lambda, V domains shown) VH: QVQLVESGGGVAQPGRSLRLSCAASGFTLSNYGMHWVRQAPGKGLEWVAVIWYDGRNKYYADSVKGRFTISRDDFKNTLDLQMNSLRAEDTAVYYCARDQHAGITMIEDWGQGTLVTVSS VL: QSALTQPPSASGSPGQSVTISCTGTSSDVGYFKYVSWYQQHPGKAPKLLIYEVSKRPSGVPDRFSGSRSGNTASLTVSGLQADDEADYYCGSYAGNNNIIFGGGTKLTVLG
Result: 0.147 µg/mL
